- TARGET ENTITY: Muscarinic acetylcholine receptor M1 (Homo sapiens)
- PROCEDURE TEXT: CHRM1 blockers of acetylcholine calcium response – CHO-K1 cells, Fluo-8 calcium fluorescence, 1536-well, primary screen (AID 588852);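 note: peak over basal fluorescence ratio during 140 s after agonist addition; 0% = ACh EC80 plus DMSO and 100% = DMSO alone without agonist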
- PARTICULARS: CHO-K1 hM1, Fluo-8 calcium fluorescence, ACh EC80 antagonist; at 3 µM; active compounds read high
The whole screen tested about 360,000 compounds, of which about 4,600 (1.3%) were called active. This excerpt belongs to a sample that is enriched for actives.
Listing of entries alongside the reported inhibition.
Write the value in % as a bare number.

Below are worked cases with known answers.
COMPOUND	QUANTITY	READOUT UNITS	MEASURED NUMBER
COc1ccc(C(CCN(Cc2ccc(OC)c(OC)c2)C(=O)CCl)c2ccccc2)cc1 (configuration not stated)	inhibition	%	-0.77
Cc1ccc(CN2CC(C(=O)NNC(=O)Cn3ccc(C(F)(F)F)n3)CC2=O)cc1 (configuration not stated)	inhibition	%	-4.1
COC(=O)C1=C(C)N(C)C(=O)NC1c1ccc([N+](=O)[O-])o1 (configuration not stated)	inhibition	%	0.09
Cc1ccccc1NC(=O)COc1cccc2c1CCNC2=O	inhibition	%	-7.58
CCCOc1ccc(F)cc1-c1cc(C(=O)Nc2ccc(F)c(Cl)c2)[nH]n1	inhibition	%	58.9
O=S(=O)(Nc1ccc(Oc2ncccn2)c(Cl)c1)c1ccc(F)cc1	inhibition	%	-16.8
Cn1c2ccccc2c2c(C(=O)N3CCN(c4ccc(F)cc4)CC3)cn(C3CCCC3)c(=O)c21	inhibition	%	29.7
CN(C)CCOc1cccc(Br)c1	inhibition	%	17.3

Muscarinic acetylcholine receptor M1 (Homo sapiens) data for CC(=O)c1c(C)[nH]c(C(=O)COC(=O)c2cccs2)c1C ; its inhibition: 10.1

Record COCC(C)NCc1cc(Br)ccc1OC (configuration not stated) / Muscarinic acetylcholine receptor M1 (Homo sapiens), inhibition recorded as -2.87

----------
- TARGET ENTITY: Muscarinic acetylcholine receptor M1 (Homo sapiens)
- PROCEDURE TEXT: CHRM1 blockers of acetylcholine calcium response – CHO-K1 cells, Fluo-8 calcium fluorescence, 1536-well, primary screen (AID 588852);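 note: peak over basal fluorescence ratio during 140 s after agonist addition; 0% = ACh EC80 plus DMSO and 100% = DMSO alone without agonist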
- PARTICULARS: CHO-K1 hM1, Fluo-8 calcium fluorescence, ACh EC80 antagonist; at 3 µM; active compounds read high
Screen size: about 360,000 compounds; about 4,600 (1.3%) were called active. This is one part of a sample in which actives are shown more often than they occur.
Here, each record is paired with measured inhibition data.
Response body: numeric value in %, unit text excluded.

COMPOUND	MEASURED NUMBER
COc1ccc(CN(C)C(=O)c2cc(-c3ccc(C)cc3C)nc3ccccc23)c(OC)c1OC	26.6

Reported inhibition of Fc1cccc(Cc2c(-c3cccc(Cl)c3)nc3ccc(Br)cn23)c1 : -20.5

----------
- TARGET ENTITY: Muscarinic acetylcholine receptor M1 (Homo sapiens) (UniProt P11229)
- Sequence (P11229 whole entry, looked up): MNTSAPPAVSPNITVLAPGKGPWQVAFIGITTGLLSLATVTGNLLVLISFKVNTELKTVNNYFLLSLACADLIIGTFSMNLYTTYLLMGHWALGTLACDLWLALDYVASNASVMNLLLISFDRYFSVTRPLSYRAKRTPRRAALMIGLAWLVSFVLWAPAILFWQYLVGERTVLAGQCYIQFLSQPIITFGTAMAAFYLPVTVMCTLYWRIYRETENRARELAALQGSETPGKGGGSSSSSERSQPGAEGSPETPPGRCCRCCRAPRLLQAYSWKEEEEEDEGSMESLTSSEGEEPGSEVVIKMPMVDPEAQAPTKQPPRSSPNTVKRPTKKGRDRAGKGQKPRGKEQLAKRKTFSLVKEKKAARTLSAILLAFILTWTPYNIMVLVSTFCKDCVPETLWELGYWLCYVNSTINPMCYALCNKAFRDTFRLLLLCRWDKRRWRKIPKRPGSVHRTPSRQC
- PROCEDURE TEXT: CHRM1 blockers of acetylcholine calcium response – CHO-K1 cells, Fluo-8 calcium fluorescence, 1536-well, primary screen (AID 588852);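 note: peak over basal fluorescence ratio during 140 s after agonist addition; 0% = ACh EC80 plus DMSO and 100% = DMSO alone without agonist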
- PARTICULARS: CHO-K1 hM1, Fluo-8 calcium fluorescence, ACh EC80 antagonist; at 3 µM; active compounds read high
Out of some 360,000 compounds screened, about 4,600 (1.3%) were called active. Many of the other results were omitted from the sample, so actives are more common in it than they were.
QUANTITY: inhibition (%)
# value in %; strip the unit string

COMPOUND	QUANTITY	READOUT UNITS	MEASURED NUMBER
Cc1cc(C)cc(NC(=O)C(OC(=O)c2ccc(O)cc2)c2ccccc2)c1 (configuration not stated)	inhibition	%	29.5
CN(C)CCOc1ccc(Cl)cc1C(C)(C)C	inhibition	%	66.2
CC(C)Oc1cc(F)ccc1-c1cc(C(=O)Nc2cccc(Cl)c2)[nH]n1	inhibition	%	24.4
CCN(CCCCOC(=O)c1ccc(OC)c(OC)c1)C(C)Cc1ccc(OC)cc1 (configuration not stated)	inhibition	%	91.6
CCOc1ccc(NC(=O)c2ccc(NC(=O)COC(=O)c3ccc(NC(=O)CC#N)cc3)cc2)cc1	inhibition	%	7.32
CN(Cc1ccccc1)C(=O)c1ccc(COc2ccccc2)cc1	inhibition	%	-0.5

Would you kindly look at the next entry?
Per the record, COc1ccccc1CN1CCN(C(c2ccccc2)c2ccccc2)CC1 has inhibition of 63.6

----------
- TARGET ENTITY: Muscarinic acetylcholine receptor M1 (Homo sapiens)
- PROCEDURE TEXT: CHRM1 blockers of acetylcholine calcium response – CHO-K1 cells, Fluo-8 calcium fluorescence, 1536-well, primary screen (AID 588852);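 note: peak over basal fluorescence ratio during 140 s after agonist addition; 0% = ACh EC80 plus DMSO and 100% = DMSO alone without agonist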
- PARTICULARS: CHO-K1 hM1, Fluo-8 calcium fluorescence, ACh EC80 antagonist; at 3 µM; active compounds read high
The whole screen tested about 360,000 compounds, of which about 4,600 (1.3%) were called active. This excerpt belongs to a sample that is enriched for actives.
inhibition for assorted compounds
Numeric answer only, unit % assumed.

Known results for compounds:
COMPOUND	inhibition [%]
COc1ccc(S(=O)(=O)N2CCN(C(=O)N(C)C)C2C)cc1 (stereo not given)	-7.85
COc1ccc(-c2nc3c(s2)CCc2onc(-c4ccc(OC)cc4)c2-3)cc1	-8.59
CCCc1noc2c1/C(=N\O)CCC2	-7.37
Cc1cccc(C(=O)N2CCC(c3nc4ccccc4s3)CC2)c1	41.2

Just so you know, measured inhibition for Cn1ccnc1SCC(=O)Nc1ccc2c(c1)OCCO2 came out at -13.9

Every entry's value here was drawn from PubChem BioAssay AID588852.
